- PROTOCOL: Toxicokinetics of levcromakalim in plasma, BID T.O. bilateral formulation 3d for 28 days in rabbits (Example 12, Table 11)
- Format: in vivo, rabbit
- MEASUREMENT_CONDITIONS: female, DB, rabbit, plasma, topical or ocular, 0.012 mg, females, 0.012 mg/eye/dose BID OU T.O. formulation 3d, Day 28, rabbit plasma
MEASURED_ENDPOINT: Cmax (ng/mL)

- CC1(C)Oc2ccc(C#N)cc2[C@@H](N2CCCC2=O)[C@@H]1O [levcromakalim]: 0.56

====

- PROTOCOL: Toxicokinetics of levcromakalim in plasma, BID T.O. bilateral formulation 3d for 28 days in rabbits (Example 12, Table 11)
- Format: in vivo, rabbit
- MEASUREMENT_CONDITIONS: female, DB, rabbit, plasma, topical or ocular, 0.03 mg, females, 0.03 mg/eye/dose BID OU T.O. formulation 3d, Day 28, rabbit plasma
MEASURED_ENDPOINT: AUC(0-t) (ng·h/mL)

* CC1(C)Oc2ccc(C#N)cc2[C@@H](N2CCCC2=O)[C@@H]1O [levcromakalim] | 3.58

====

- PROTOCOL: Toxicokinetics of levcromakalim in plasma, BID T.O. bilateral formulation 3d for 28 days in rabbits (Example 12, Table 11)
- Format: in vivo, rabbit
- MEASUREMENT_CONDITIONS: male, DB, rabbit, plasma, topical or ocular, 0.06 mg, males, 0.06 mg/eye/dose BID OU T.O. formulation 3d, Day 1, rabbit plasma
MEASURED_ENDPOINT: Tmax (min)

- CC1(C)Oc2ccc(C#N)cc2[C@@H](N2CCCC2=O)[C@@H]1O: 42

====

- PROTOCOL: Toxicokinetics of levcromakalim in plasma, BID T.O. bilateral formulation 3d for 28 days in rabbits (Example 12, Table 11)
- Type: in vivo, rabbit
- MEASUREMENT_CONDITIONS: male, DB, rabbit, plasma, topical or ocular, 0.06 mg, males, 0.06 mg/eye/dose BID OU T.O. formulation 3d, Day 28, rabbit plasma
MEASURED_ENDPOINT: Cmax (ng/mL)

* CC1(C)Oc2ccc(C#N)cc2[C@@H](N2CCCC2=O)[C@@H]1O [levcromakalim] | 2.58

====

- PROTOCOL: Toxicokinetics of levcromakalim in plasma, BID T.O. bilateral formulation 3d for 28 days in rabbits (Example 12, Table 11)
- Type: in vivo, rabbit
- MEASUREMENT_CONDITIONS: female, DB, rabbit, plasma, topical or ocular, 0.06 mg, females, 0.06 mg/eye/dose BID OU T.O. formulation 3d, Day 1, rabbit plasma
MEASURED_ENDPOINT: Tmax (h)

• CC1(C)Oc2ccc(C#N)cc2[C@@H](N2CCCC2=O)[C@@H]1O = 1

====

- PROTOCOL: Toxicokinetics of levcromakalim in plasma, BID T.O. bilateral formulation 3d for 28 days in rabbits (Example 12, Table 11)
- Format: in vivo, rabbit
- MEASUREMENT_CONDITIONS: female, DB, rabbit, plasma, topical or ocular, 0.06 mg, females, 0.06 mg/eye/dose BID OU T.O. formulation 3d, Day 28, rabbit plasma
- Description: Plasma concentrations of levcromakalim were evaluated in DB rabbits after twice a day (BID) oculus uterque (OU, both eyes) topical ophthalmic (T.O.) administration of formulation 3d for 28 days at dose levels of 0, 0.012, 0.03, and 0.06 mg/eye/dose. […]
MEASURED_ENDPOINT: Tmax (h)

* CC1(C)Oc2ccc(C#N)cc2[C@@H](N2CCCC2=O)[C@@H]1O | 1.2

====

- PROTOCOL: Toxicokinetics of levcromakalim in plasma, BID T.O. bilateral formulation 3d for 28 days in rabbits (Example 12, Table 11)
- Assay type: in vivo, rabbit
- MEASUREMENT_CONDITIONS: female, DB, rabbit, plasma, topical or ocular, 0.03 mg, females, 0.03 mg/eye/dose BID OU T.O. formulation 3d, Day 28, rabbit plasma
MEASURED_ENDPOINT: half-life (h)

* CC1(C)Oc2ccc(C#N)cc2[C@@H](N2CCCC2=O)[C@@H]1O [levcromakalim] | 2.19

====

- PROTOCOL: Toxicokinetics of levcromakalim in plasma, BID T.O. bilateral formulation 3d for 28 days in rabbits (Example 12, Table 11)
- Format: in vivo, rabbit
- MEASUREMENT_CONDITIONS: male, DB, rabbit, plasma, topical or ocular, 0.012 mg, males, 0.012 mg/eye/dose BID OU T.O. formulation 3d, Day 28, rabbit plasma
MEASURED_ENDPOINT: Tmax (min)

- CC1(C)Oc2ccc(C#N)cc2[C@@H](N2CCCC2=O)[C@@H]1O: 19.8

====

- PROTOCOL: Toxicokinetics of levcromakalim in plasma, BID T.O. bilateral formulation 3d for 28 days in rabbits (Example 12, Table 11)
- Assay type: in vivo, rabbit
- MEASUREMENT_CONDITIONS: male, DB, rabbit, plasma, topical or ocular, 0.012 mg, males, 0.012 mg/eye/dose BID OU T.O. formulation 3d, Day 1, rabbit plasma
MEASURED_ENDPOINT: Tmax (h)

• CC1(C)Oc2ccc(C#N)cc2[C@@H](N2CCCC2=O)[C@@H]1O = 1.17

====

- PROTOCOL: Toxicokinetics of levcromakalim in plasma, BID T.O. bilateral formulation 3d for 28 days in rabbits (Example 12, Table 11)
- Type: in vivo, rabbit
- MEASUREMENT_CONDITIONS: female, DB, rabbit, plasma, topical or ocular, 0.012 mg, females, 0.012 mg/eye/dose BID OU T.O. formulation 3d, Day 1, rabbit plasma
MEASURED_ENDPOINT: Cmax (ng/mL)

* CC1(C)Oc2ccc(C#N)cc2[C@@H](N2CCCC2=O)[C@@H]1O | 0.64

====

- PROTOCOL: Toxicokinetics of levcromakalim in plasma, BID T.O. bilateral formulation 3d for 28 days in rabbits (Example 12, Table 11)
- Assay type: in vivo, rabbit
- MEASUREMENT_CONDITIONS: male, DB, rabbit, plasma, topical or ocular, 0.06 mg, males, 0.06 mg/eye/dose BID OU T.O. formulation 3d, Day 1, rabbit plasma
- Procedure: Plasma concentrations of levcromakalim were evaluated in DB rabbits after twice a day (BID) oculus uterque (OU, both eyes) topical ophthalmic (T.O.) administration of formulation 3d for 28 days at dose levels of 0, 0.012, 0.03, and 0.06 mg/eye/dose. […]
MEASURED_ENDPOINT: Cmax

• CC1(C)Oc2ccc(C#N)cc2[C@@H](N2CCCC2=O)[C@@H]1O [levcromakalim] = 2.61 ng/mL

====

- PROTOCOL: Toxicokinetics of levcromakalim in plasma, BID T.O. bilateral formulation 3d for 28 days in rabbits (Example 12, Table 11)
- Type: in vivo, rabbit
- MEASUREMENT_CONDITIONS: male, DB, rabbit, plasma, topical or ocular, 0.012 mg, males, 0.012 mg/eye/dose BID OU T.O. formulation 3d, Day 28, rabbit plasma
MEASURED_ENDPOINT: Cmax (ng/mL)

- CC1(C)Oc2ccc(C#N)cc2[C@@H](N2CCCC2=O)[C@@H]1O: 0.37

====

- PROTOCOL: Toxicokinetics of levcromakalim in plasma, BID T.O. bilateral formulation 3d for 28 days in rabbits (Example 12, Table 11)
- Assay type: in vivo, rabbit
- MEASUREMENT_CONDITIONS: female, DB, rabbit, plasma, topical or ocular, 0.012 mg, females, 0.012 mg/eye/dose BID OU T.O. formulation 3d, Day 1, rabbit plasma
MEASURED_ENDPOINT: Tmax (h)

* CC1(C)Oc2ccc(C#N)cc2[C@@H](N2CCCC2=O)[C@@H]1O | 1.67

====

- PROTOCOL: Toxicokinetics of levcromakalim in plasma, BID T.O. bilateral formulation 3d for 28 days in rabbits (Example 12, Table 11)
- Format: in vivo, rabbit
- MEASUREMENT_CONDITIONS: male, DB, rabbit, plasma, topical or ocular, 0.03 mg, males, 0.03 mg/eye/dose BID OU T.O. formulation 3d, Day 1, rabbit plasma
MEASURED_ENDPOINT: half-life

- CC1(C)Oc2ccc(C#N)cc2[C@@H](N2CCCC2=O)[C@@H]1O: 1.28 h

====

- PROTOCOL: Toxicokinetics of levcromakalim in plasma, BID T.O. bilateral formulation 3d for 28 days in rabbits (Example 12, Table 11)
- Format: in vivo, rabbit
- MEASUREMENT_CONDITIONS: male, DB, rabbit, plasma, topical or ocular, 0.06 mg, males, 0.06 mg/eye/dose BID OU T.O. formulation 3d, Day 1, rabbit plasma
MEASURED_ENDPOINT: half-life

• CC1(C)Oc2ccc(C#N)cc2[C@@H](N2CCCC2=O)[C@@H]1O [levcromakalim] = 103 min

====

- PROTOCOL: Toxicokinetics of levcromakalim in plasma, BID T.O. bilateral formulation 3d for 28 days in rabbits (Example 12, Table 11)
- Type: in vivo, rabbit
- MEASUREMENT_CONDITIONS: male, DB, rabbit, plasma, topical or ocular, 0.06 mg, males, 0.06 mg/eye/dose BID OU T.O. formulation 3d, Day 1, rabbit plasma
MEASURED_ENDPOINT: AUC(0-t) (ng·h/mL)

* CC1(C)Oc2ccc(C#N)cc2[C@@H](N2CCCC2=O)[C@@H]1O | 5.64

Data origin, for the record: patent US20250387366A1
